Target: GCase (Homo sapiens)
Construct: endogenous in cells; host or cells: HeLa cells
Sequence (P04062 40-536): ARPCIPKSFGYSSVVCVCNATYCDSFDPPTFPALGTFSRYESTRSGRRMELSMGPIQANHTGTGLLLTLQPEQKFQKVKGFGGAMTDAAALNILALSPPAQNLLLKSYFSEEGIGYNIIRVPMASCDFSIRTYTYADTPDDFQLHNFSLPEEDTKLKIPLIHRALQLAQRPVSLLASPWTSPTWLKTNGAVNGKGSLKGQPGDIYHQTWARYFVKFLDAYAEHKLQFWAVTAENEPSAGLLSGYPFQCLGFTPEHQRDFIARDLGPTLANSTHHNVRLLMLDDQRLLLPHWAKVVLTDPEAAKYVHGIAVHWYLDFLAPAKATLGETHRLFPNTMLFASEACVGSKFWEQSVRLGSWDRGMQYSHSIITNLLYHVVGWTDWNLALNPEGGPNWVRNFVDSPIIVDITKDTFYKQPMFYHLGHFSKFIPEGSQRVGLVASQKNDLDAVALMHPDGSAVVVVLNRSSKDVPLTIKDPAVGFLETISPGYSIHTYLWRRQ
Assay: activation of GCase in a live cell PFB assay in HELA cells
Type: cell-based
Details: EC50 given as range classes
pEC50: −log10 of the molar value.
Recorded pEC50 by entry

Entry Cc1ncc(N2CC3(CCN(c4cnc5cnn(CC(F)F)c5n4)C3)C2)c(C(F)(F)F)n1 [Cmpd 592] has what pEC50?
< 4.00

Try the molecule O=S(=O)(c1ccccc1C(F)(F)F)N1CC2(CCN(c3cnc4cnn(CC(F)F)c4n3)C2)C1 [Cmpd 396]
4.30 to 5.00

Moving on to O=C(c1cccc(OC(F)(F)F)c1)N1CC2(CCN(c3cnc4cnn(CC(F)F)c4n3)C2)C1 [Cmpd 388]
4.30 to 5.00

Let us now turn to Cn1c(N2CCC3(CCN(c4ccnc(C(F)(F)F)n4)C3)CC2)nc2c(cnn2CC(F)F)c1=O [Cmpd 1014]
> 5.00
